- testProtocol: self-splicing fitness, log relative to wild type (ln ratio); higher = more splicing; Tetrahymena group I intron in knt gene, E. coli kanamycin selection, DiMSum; sequences stand for … in CUCUCU…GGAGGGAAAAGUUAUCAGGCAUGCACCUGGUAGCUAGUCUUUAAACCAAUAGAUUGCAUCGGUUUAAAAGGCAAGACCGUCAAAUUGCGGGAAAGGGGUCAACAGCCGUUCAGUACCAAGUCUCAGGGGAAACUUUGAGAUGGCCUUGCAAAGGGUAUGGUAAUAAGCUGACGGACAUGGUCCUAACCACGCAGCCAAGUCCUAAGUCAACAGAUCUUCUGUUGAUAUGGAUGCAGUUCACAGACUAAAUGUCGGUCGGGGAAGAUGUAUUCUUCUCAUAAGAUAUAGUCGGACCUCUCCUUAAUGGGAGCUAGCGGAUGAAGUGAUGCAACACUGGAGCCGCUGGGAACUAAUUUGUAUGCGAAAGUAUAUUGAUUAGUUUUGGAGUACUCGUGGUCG;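 further: selection with 25 µg/mL kanamycin versus none on LB agar overnight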
- measurementContext: 30 °C
Quick rule: self-splicing fitness (ln) of at least -2 means 1, below that means 0.

Query: In plain terms: is recorded self-splicing fitness (ln) at least -2 for GUCAAGCAAUAUUACGCUCG ?
Response: 0

Query: Given the entry GCUCAGCAAUAUUACGGGAG , answer whether its self-splicing fitness (ln) meets or surpasses -2.
Response: 0

Query: Evaluate UUGCAGCAAUAUUACGACGA : self-splicing fitness (ln) at minimum -2?
Response: 1

Query: Identify whether the reported self-splicing fitness (ln) of the following sequence is -2 or greater: CCAAAGCAAUAUUACGCAGC
Response: 0

Query: Item CUGGAGCAAUAUUACGUAUU with self-splicing fitness (ln) of -2 or above?
Response: 0

Query: Hi team, for CUCAAGCAAUAUUACGUUCG , is the recorded self-splicing fitness (ln) at or above -2?
Response: 0

Query: Decide: self-splicing fitness (ln) of AAAUAGCAAUAUUACGAUCA >= -2?
Response: 1

Query: Does CCACAGCAAUAUUACGAAAU have a reported self-splicing fitness (ln) of at least -2?
Response: 0

Query: Can ACAAAGCAAUAUUACGAUGG be said to have self-splicing fitness (ln) at or above -2?
Response: 1

Query: Form field: self-splicing fitness (ln) at least -2? Entry: CGUAAGCAAUAUUACGGUAA
Response: 0

* * *

- testProtocol: self-splicing fitness, log relative to wild type (ln ratio); higher = more splicing; Tetrahymena group I intron in knt gene, E. coli kanamycin selection, DiMSum; sequences stand for … in CUCUCU…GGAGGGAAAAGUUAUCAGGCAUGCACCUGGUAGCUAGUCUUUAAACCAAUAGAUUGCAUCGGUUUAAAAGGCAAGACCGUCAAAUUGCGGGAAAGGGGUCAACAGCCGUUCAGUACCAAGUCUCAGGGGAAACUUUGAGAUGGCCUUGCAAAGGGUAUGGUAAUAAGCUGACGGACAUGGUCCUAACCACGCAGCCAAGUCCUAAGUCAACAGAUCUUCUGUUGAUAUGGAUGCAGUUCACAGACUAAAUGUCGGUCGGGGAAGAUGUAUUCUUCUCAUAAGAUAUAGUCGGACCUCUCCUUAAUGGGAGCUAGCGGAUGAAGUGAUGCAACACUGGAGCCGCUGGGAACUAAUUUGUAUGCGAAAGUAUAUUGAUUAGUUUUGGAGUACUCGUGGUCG
- measurementContext: 30 °C
Give self-splicing fitness (ln) for every item shown.
The answer should be written as a number, with no unit following it.

Query: Give the measured self-splicing fitness (ln) of GUUGAGCAAUAUUACGGAUG .
Response: -3.56

Query: GET /values?readout=self-splicing fitness (ln)&item= GCUCAGCAAUAUUACGUAUG
Response: -2.44

Query: Recorded self-splicing fitness (ln) of CUAUAGCAAUAUUACGGUGU , please.
Response: -4.24

Query: Field request: self-splicing fitness (ln) | item: GUAAAGCAAUAUUACGUGGA
Response: -2.51

Query: Tell me the measured self-splicing fitness (ln) of CACUAGCAAUAUUACGAUAU , please.
Response: -4.57

Query: # get_value(readout='self-splicing fitness (ln)', item= UGUGAGCAAUAUUACGUUGU )
Response: -3.15

Query: Which self-splicing fitness (ln) value is on record for CGCCAGCAAUAUUACGAGGU ?
Response: -4.39

Query: Which self-splicing fitness (ln) is listed for GGCAAGCAAUAUUACGUUUC ?
Response: -0.714

Query: Would you mind telling me what self-splicing fitness (ln) value was observed for CUCUAGCAAUAUUACGUGCG ?
Response: -2.61

Query: Reported self-splicing fitness (ln), sequence CGUUAGCAAUAUUACGAGCU : ____
Response: -1.25

Query: Entry UACCAGCAAUAUUACGGAUU : reported self-splicing fitness (ln) = ?
Response: -0.984

Query: Record request: self-splicing fitness (ln) value, item GCGAAGCAAUAUUACGAACG
Response: -1.63

Query: So what's the measured self-splicing fitness (ln) for this one? GCUUAGCAAUAUUACGUAGU
Response: -1.2

Query: Which self-splicing fitness (ln) is listed for CCACAGCAAUAUUACGCGUU ?
Response: -3.65

Query: Return reported self-splicing fitness (ln); argument: CAUUAGCAAUAUUACGACAC
Response: -2.3

Query: Quick check: self-splicing fitness (ln) of GCGGAGCAAUAUUACGGAUA ?
Response: -2.53

Query: // self-splicing fitness (ln) lookup, key: AAUAAGCAAUAUUACGGUCA
Response: -0.268

Query: I have this sequence here, AACGAGCAAUAUUACGACGC , and I need its recorded self-splicing fitness (ln).
Response: -2

Query: Need self-splicing fitness (ln) of UUAAAGCAAUAUUACGCUAA , thanks.
Response: -0.626

Query: Find the recorded self-splicing fitness (ln) belonging to CCGAAGCAAUAUUACGCUGA and report it.
Response: -3.08

Query: Dear colleague, I am looking for the recorded self-splicing fitness (ln) of the following sequence: ACGCAGCAAUAUUACGCUUU
Response: -1.69

Query: Fill in: self-splicing fitness (ln) of AUAUAGCAAUAUUACGAUGA is ___
Response: -0.834
